- ASSAYED_TARGET: human GIP receptor (Homo sapiens)
- Construct: expressed in transfected cells; host or cells: BHK (baby hamster kidney) cells, membrane preparation
- Sequence (P48546 22-466): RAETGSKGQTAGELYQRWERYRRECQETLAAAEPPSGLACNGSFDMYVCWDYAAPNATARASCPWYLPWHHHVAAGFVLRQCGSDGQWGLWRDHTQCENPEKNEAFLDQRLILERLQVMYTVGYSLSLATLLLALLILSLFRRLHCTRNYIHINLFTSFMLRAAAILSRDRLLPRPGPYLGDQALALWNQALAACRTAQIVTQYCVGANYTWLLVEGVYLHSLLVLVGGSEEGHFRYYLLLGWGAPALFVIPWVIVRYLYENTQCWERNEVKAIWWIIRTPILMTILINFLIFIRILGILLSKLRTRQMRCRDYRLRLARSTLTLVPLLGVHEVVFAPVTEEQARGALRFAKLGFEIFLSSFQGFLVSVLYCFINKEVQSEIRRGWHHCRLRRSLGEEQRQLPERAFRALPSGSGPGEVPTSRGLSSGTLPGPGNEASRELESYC
- PROCEDURE_SUMMARY: GIP Binding Assay
- DETAILS: membranes of BHK cells transfected with human GIP receptor, 125I-GIP, SPA; read-out: GIP Bd Assay IC50
compounds and their reported IC50
Report the value in nM with no unit label.

CC(C)(C)C1CC=C(c2ccc(N(Cc3ccc(C(=O)NC[C@@H](O)C(=O)O)cc3)C(=O)Nc3cc(Cl)cc(Cl)c3)cc2)CC1 (stereo partly drawn)    189

Next item in the queue.
Request the reported IC50 associated with `CC(C)(C)c1ccc(N(Cc2ccc(C(=O)NC[C@@H](O)C(=O)O)cc2)C(=O)Nc2ccc(F)c(F)c2)cc1`
1170

---

- ASSAYED_TARGET: human glucagon receptor (Homo sapiens)
- Construct: expressed in transfected cells; host or cells: BHK (baby hamster kidney) cells, membrane preparation
- PROCEDURE_SUMMARY: Glucagon Binding Assay (II)
- DETAILS: membranes of BHK cells transfected with human glucagon receptor, 125I-glucagon, SPA; read-out: Glu Bd Assay (II) IC50
Consider the cut-off 0.04 µM. If the recorded IC50 is strictly smaller, the label is Condition met; if not, the label is Condition not met.

Some solved entries appear below for comparison.
O=C(NC[C@@H](O)C(=O)O)c1ccc(CN(CC(c2ccccc2)c2ccccc2)C(=O)c2cc3cc(OC(F)(F)F)ccc3[nH]2)cc1    Condition not met
O=C(NC[C@@H](O)C(=O)O)c1ccc(CN(C(=O)Nc2cccc(Br)c2)c2ccc(C3CCCCC3)cc2)cc1    Condition met
O=C(NC[C@@H](O)C(=O)O)c1ccc(CN(C(=O)Nc2cc(Cl)cc(Cl)c2)c2ccc(C3CCCCC3)cc2)cc1    Condition met

Consider now this further compound.
In plain terms, does `O=C(NC[C@@H](O)C(=O)O)c1ccc(CN(CC(c2ccccc2)c2ccccc2)C(=O)Cc2cc(F)cc(C(F)(F)F)c2)cc1` come in under 0.04 µM for IC50?
Condition not met

---

- ASSAYED_TARGET: human GIP receptor (Homo sapiens)
- Construct: expressed in transfected cells; host or cells: BHK (baby hamster kidney) cells, membrane preparation
- PROCEDURE_SUMMARY: GIP Binding Assay
- DETAILS: membranes of BHK cells transfected with human GIP receptor, 125I-GIP, SPA; read-out: GIP Bd Assay IC50
Consider the cut-off 700 nM. If the recorded IC50 is strictly smaller, the label is Satisfied; if not, the label is Not satisfied.

Some solved entries appear below for comparison.
CC(C)c1ccc(NC(=O)N(Cc2ccc(C(=O)NC[C@@H](O)C(=O)O)cc2)c2ccc(C3CCCCC3)cc2)cc1 [Example 51]    Not satisfied
O=C(NC[C@@H](O)C(=O)O)c1ccc(CN(C(=O)NCc2ccccc2)c2ccc(C3=CCCCC3)cc2)cc1 [Example 22]    Not satisfied
O=C(NC[C@@H](O)C(=O)O)c1ccc(CN(C(=O)Nc2cccc(Br)c2)c2ccc(C3CCCCC3)cc2)cc1 [Example 3]    Satisfied
CC(C)(C)c1ccc(N(Cc2ccc(C(=O)NC[C@@H](O)C(=O)O)cc2)C(=O)Nc2ccc3c(c2)C(F)(F)OC(F)(F)O3)cc1 [Example 44]    Satisfied

In plain terms, does N#Cc1cc(NC(=O)N(Cc2ccc(C(=O)NC[C@@H](O)C(=O)O)cc2)c2ccc(C3CCCCC3)cc2)cc(C(F)(F)F)c1 [Example 8] come in under 700 nM for IC50?
Satisfied

Could you do the same for O=C(NC[C@@H](O)C(=O)O)c1ccc(CN(CC(c2ccccc2)c2ccccc2)C(=O)Cc2ccc(OC(F)(F)F)cc2)cc1 [Example 60] , please?
Not satisfied

---

- ASSAYED_TARGET: human GIP receptor (Homo sapiens, UniProt P48546)
- Construct: expressed in transfected cells; host or cells: BHK (baby hamster kidney) cells, membrane preparation
- PROCEDURE_SUMMARY: GIP Binding Assay
- DETAILS: membranes of BHK cells transfected with human GIP receptor, 125I-GIP, SPA; read-out: GIP Bd Assay IC50
ASSAY_ENDPOINT: IC50 (nM)
Report the value in nM with no unit label.

O=C(NC[C@@H](O)C(=O)O)c1ccc(CN(C(=O)Nc2ccc(SC(F)(F)F)cc2)c2ccc(C3CCCCC3)cc2)cc1 [Example 24]    37
O=C(NC[C@@H](O)C(=O)O)c1ccc(CN(C(=O)Nc2cc(Cl)cc(Cl)c2)c2ccc(C3=CCCCC3)cc2)cc1 [Example 19]    916
CC(C)(C)C1CCC(N(Cc2ccc(C(=O)NC[C@@H](O)C(=O)O)cc2)C(=O)Nc2ccc(Cl)c(Cl)c2)CC1 (stereo partly shown) [Example 41]    1590
O=C(NC[C@@H](O)C(=O)O)c1ccc(CN(C(=O)Nc2ccc(Cl)c(C(F)(F)F)c2)c2ccc(C3CCCCC3)cc2)cc1 [Example 49]    160
CC(C)(C)C1CCC(N(Cc2ccc(C(=O)NC[C@@H](O)C(=O)O)cc2)C(=O)Cc2ccc(OC(F)(F)F)cc2)CC1 (stereo partly shown) [Example 56]    1370
CC(C)(C)C1CCC(N(Cc2ccc(C(=O)NC[C@@H](O)C(=O)O)cc2)C(=O)Nc2ccc3c(c2)C(F)(F)OC(F)(F)O3)CC1 (stereo partly shown) [Example 45]    373

Next item in the queue.
Any idea what IC50 came out for O=C(NC[C@@H](O)C(=O)O)c1ccc(CN(C(=O)Nc2cccc(Br)c2)c2ccc(C3=CCCCC3)cc2)cc1 [Example 11] on human GIP receptor (Homo sapiens, UniProt P48546)?
914

---

- ASSAYED_TARGET: human GIP receptor (Homo sapiens, UniProt P48546)
- Construct: expressed in transfected cells; host or cells: BHK (baby hamster kidney) cells, membrane preparation
- PROCEDURE_SUMMARY: GIP Binding Assay
- DETAILS: membranes of BHK cells transfected with human GIP receptor, 125I-GIP, SPA; read-out: GIP Bd Assay IC50
compounds and their reported pIC50
Units for pIC50: none; it is -log10 of a concentration expressed in mol/L.

O=C(NC[C@@H](O)C(=O)O)c1ccc(CN(C(=O)NCc2ccccc2-c2ccccc2)c2ccc(C3CCCCC3)cc2)cc1    6.55
O=C(NC[C@@H](O)C(=O)O)c1ccc(CN(C(=O)Nc2ccc(F)c(F)c2)c2ccc(C3CCCCC3)cc2)cc1    6.18
N#Cc1ccc(NC(=O)N(Cc2ccc(C(=O)NC[C@@H](O)C(=O)O)cc2)c2ccc(C3CCCCC3)cc2)cc1C(F)(F)F    6.28

Request the reported pIC50 associated with `O=C(NC[C@@H](O)C(=O)O)c1ccc(CN(C(=O)Nc2cc(C(F)(F)F)cc(C(F)(F)F)c2)c2ccc(C3CCCCC3)cc2)cc1`
6.57

---

- ASSAYED_TARGET: human glucagon receptor (Homo sapiens, UniProt P47871)
- Construct: expressed in transfected cells; host or cells: BHK (baby hamster kidney) cells, membrane preparation
- Sequence (P47871 26-477): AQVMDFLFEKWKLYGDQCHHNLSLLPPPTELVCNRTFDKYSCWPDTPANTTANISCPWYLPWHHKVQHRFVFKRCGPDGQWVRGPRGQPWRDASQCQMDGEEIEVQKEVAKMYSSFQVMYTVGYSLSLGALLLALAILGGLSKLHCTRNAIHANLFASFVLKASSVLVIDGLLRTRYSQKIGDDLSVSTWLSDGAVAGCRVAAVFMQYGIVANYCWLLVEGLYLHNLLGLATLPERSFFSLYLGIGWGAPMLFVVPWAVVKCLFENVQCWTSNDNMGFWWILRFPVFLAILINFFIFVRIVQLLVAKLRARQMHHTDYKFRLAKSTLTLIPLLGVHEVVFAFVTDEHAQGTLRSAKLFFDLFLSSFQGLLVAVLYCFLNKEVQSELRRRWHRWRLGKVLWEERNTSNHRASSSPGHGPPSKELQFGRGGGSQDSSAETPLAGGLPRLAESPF
- PROCEDURE_SUMMARY: Glucagon Binding Assay (II)
- DETAILS: membranes of BHK cells transfected with human glucagon receptor, 125I-glucagon, SPA; read-out: Glu Bd Assay (II) IC50
ASSAY_ENDPOINT: IC50

O=C(NC[C@@H](O)C(=O)O)c1ccc(CN(C(=O)Nc2cc(F)cc(F)c2)c2ccc(C3CCCCC3)cc2)cc1    50 nM

Request the reported IC50 associated with `CC(C)(C)[C@H]1CC[C@H](N(Cc2ccc(C(=O)NC[C@@H](O)C(=O)O)cc2)C(=O)Nc2cc(C(F)(F)F)cc(C(F)(F)F)c2)CC1`
19 nM

Could you do the same for CC(C)(C)C1CC=C(c2ccc(N(Cc3ccc(C(=O)NC[C@@H](O)C(=O)O)cc3)C(=O)Nc3cc(Cl)cc(Cl)c3)cc2)CC1 (stereo partly shown) , please?
12 nM

Could you do the same for `CSc1cccc(NC(=O)N(Cc2ccc(C(=O)NC[C@@H](O)C(=O)O)cc2)c2ccc(C3CCCCC3)cc2)c1` , please?
24 nM

Could you do the same for CC(C)(C)C1CCC(N(Cc2ccc(C(=O)NC[C@@H](O)C(=O)O)cc2)C(=O)Cc2cc(F)cc(C(F)(F)F)c2)CC1 (stereo partly shown) , please?
439 nM

Could you do the same for `C[C@H](NC(=O)N(Cc1ccc(C(=O)NC[C@@H](O)C(=O)O)cc1)c1ccc(C2CCCCC2)cc1)c1ccc(Cl)cc1` , please?
40 nM

Could you do the same for `O=C(NC[C@@H](O)C(=O)O)c1ccc(CN(C(=O)Nc2cc(Cl)cc(Cl)c2)c2ccc(C3=CCCCC3)cc2)cc1` , please?
15 nM

Could you do the same for `O=C(NC[C@@H](O)C(=O)O)c1ccc(CN(C(=O)NCc2ccccc2)c2ccc(C3=CCCCC3)cc2)cc1` , please?
354 nM

Could you do the same for `O=C(NC[C@@H](O)C(=O)O)c1ccc(CN(C(=O)Nc2cc(Br)cc(C(F)(F)F)c2)c2ccc(C3CCCCC3)cc2)cc1` , please?
10 nM

meta.source: patent US6953812B2
